Where these numbers come from: patent US20240115566A1

Assay: in vivo
Conditions: male, BALB/c, mouse, plasma, iv, 2 mg/kg
# Cmax annotations
Quick reminder: number only, in ng/mL, skip the unit.

1. CC(C)c1ccc(CC(=O)N2CCN(c3ccc(C#N)nn3)CC2)cc1 [PZ-2891]
2810

Shifting focus to the molecule that follows.
Task: Could you tell me which Cmax is on file for N#Cc1ccc(N2CCN(C(=O)Cc3ccc(C4CC4)cc3)CC2)nn1 [PZ-3022] ?
Output: 3290

====

Test: in vivo
Details: male, BALB/c, mouse, plasma, oral, 10 mg/kg
The following compounds are listed with their measured bioavailability values.
Please append the unit to your numeric answer.

1. N#Cc1ccc(N2CCN(C(=O)Cc3ccc(C4CC4)cc3)CC2)nn1
100%

Next, consider the following compound.
Task: bioavailability for CC(C)c1ccc(CC(=O)N2CCN(c3ccc(C#N)nn3)CC2)cc1 ?
Output: 46%

====

Assay: in vivo
Settings: male, BALB/c, mouse, plasma, iv, 2 mg/kg
property: AUC(0-t) (ng·h/mL)
Note: unit ng·h/mL is implicit; provide only the numeric part.

Task: // query AUC(0-t) value for entry N#Cc1ccc(N2CCN(C(=O)Cc3ccc(C4CC4)cc3)CC2)nn1 [PZ-3022]
Output: 2960
